# Subject of test: nNOS (Rat) (Rattus norvegicus)
# Assay overview: nNOS (Rat) enzyme assay
# Format: biochemical
# Measurement parameters: rat nNOS; values in parentheses; read-out: nNOS IC50 (rodent data in parentheses)
# Description: nNOS (Rat), eNOS (Rat) and iNOS (Mouse) Enzyme Assay Recombinant rat or mouse NO synthases (iNOS, eNOS, nNOS) were expressed in Sf9 cells (Sigma), 36 mg prot/ml (Bradford). […] Inhibition of NOS was determined by measuring the formation of L-[3H] citrulline from L-[3H] arginine. […] Stop buffer:100 mM Hepes, pH 5.5, 3 mM EDTA, 3 mM EGTA.
Structures can show the parent of a compound that is named as a salt.
Provide the reported IC50 of each item.
The reply should contain only the number, in nM.

Ask: Provide the documented IC50 with nNOS (Rat) (Rattus norvegicus) as the system for `CN(CCO)CCN1CCCc2cc(NC(=N)c3cccs3)ccc21`
Result: 940

Ask: Provide the documented IC50 with nNOS (Rat) (Rattus norvegicus) as the system for `N=C(Nc1ccc2c(c1)CCC(=O)N2CCN1CCCCC1)c1cccs1`
Result: 22

Ask: Provide the documented IC50 with nNOS (Rat) (Rattus norvegicus) as the system for N=C(Nc1ccc2c(c1)CCCN2C1CCNC1)c1cccs1 (single isomer, unassigned; (+)) [Example 66, dihydrochloride]
Result: 100

---

# Subject of test: Nitric oxide synthase (neuronal, human recombinant) nNOS (Homo sapiens, UniProt P29475)
# Sequence (P29475 whole entry): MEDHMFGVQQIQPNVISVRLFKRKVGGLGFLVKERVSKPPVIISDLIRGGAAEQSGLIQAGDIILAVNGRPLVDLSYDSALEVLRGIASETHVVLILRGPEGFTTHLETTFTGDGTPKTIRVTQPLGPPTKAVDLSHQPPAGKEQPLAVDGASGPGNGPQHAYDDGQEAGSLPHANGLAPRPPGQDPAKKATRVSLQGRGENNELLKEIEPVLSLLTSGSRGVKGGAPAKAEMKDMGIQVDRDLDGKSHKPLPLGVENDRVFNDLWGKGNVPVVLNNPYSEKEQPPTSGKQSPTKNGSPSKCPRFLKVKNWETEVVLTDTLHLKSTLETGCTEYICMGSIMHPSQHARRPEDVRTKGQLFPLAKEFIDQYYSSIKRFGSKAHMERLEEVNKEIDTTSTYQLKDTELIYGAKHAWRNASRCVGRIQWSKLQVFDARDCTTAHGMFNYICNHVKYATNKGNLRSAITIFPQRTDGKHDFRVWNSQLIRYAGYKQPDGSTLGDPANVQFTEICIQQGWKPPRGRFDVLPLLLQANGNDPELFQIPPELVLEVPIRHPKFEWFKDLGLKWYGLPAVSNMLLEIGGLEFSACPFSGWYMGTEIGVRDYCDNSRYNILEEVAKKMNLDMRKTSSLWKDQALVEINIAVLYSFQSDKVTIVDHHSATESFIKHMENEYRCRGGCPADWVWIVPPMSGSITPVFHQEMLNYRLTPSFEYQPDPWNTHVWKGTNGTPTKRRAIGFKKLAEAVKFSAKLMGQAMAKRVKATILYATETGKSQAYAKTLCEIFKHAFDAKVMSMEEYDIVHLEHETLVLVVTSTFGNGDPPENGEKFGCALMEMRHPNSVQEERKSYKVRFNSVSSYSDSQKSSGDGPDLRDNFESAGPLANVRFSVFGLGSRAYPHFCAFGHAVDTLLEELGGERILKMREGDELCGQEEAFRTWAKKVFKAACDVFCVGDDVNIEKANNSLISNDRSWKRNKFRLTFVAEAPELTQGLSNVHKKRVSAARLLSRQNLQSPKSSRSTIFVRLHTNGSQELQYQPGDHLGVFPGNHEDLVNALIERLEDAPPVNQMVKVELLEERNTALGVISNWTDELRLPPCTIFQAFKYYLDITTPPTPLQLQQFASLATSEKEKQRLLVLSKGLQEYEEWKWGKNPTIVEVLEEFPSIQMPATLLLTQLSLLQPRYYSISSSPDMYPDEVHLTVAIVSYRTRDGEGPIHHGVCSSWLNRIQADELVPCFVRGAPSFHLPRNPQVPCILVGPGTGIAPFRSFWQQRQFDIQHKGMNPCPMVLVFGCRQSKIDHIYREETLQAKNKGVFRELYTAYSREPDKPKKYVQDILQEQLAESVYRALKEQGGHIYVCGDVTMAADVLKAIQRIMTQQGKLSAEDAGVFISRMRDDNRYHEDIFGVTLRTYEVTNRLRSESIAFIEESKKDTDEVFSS
# Assay overview: Human nNOS enzyme assay ([3H]L-arginine to [3H]L-citrulline)
# Format: biochemical
# Measurement parameters: human recombinant nNOS; values without parentheses; read-out: hnNOS IC50
Provide the reported pIC50 of each item.
// pIC50 here means minus log10 of the molar concentration (mol/L)

Ask: Param item = CNCCCN1CCCc2cc(NC(=N)c3cccs3)ccc21 [Example 63] ; retrieve measured pIC50.
Result: 6.63

Ask: Param item = CN1CCCC1CCN1CCCc2cc(NC(=N)c3cccs3)ccc21 (single isomer, unassigned) [Example 24] ; retrieve measured pIC50.
Result: 6.77

Ask: Param item = Cl.Cl.N=C(Nc1ccc2c(c1)CCN2C1CCNCC1)c1cccs1 [Example 54, dihydrochloride] ; retrieve measured pIC50.
Result: 6.57

Ask: Param item = CC(C)NCCN1CCCc2cc(NC(=N)c3cccs3)ccc21 [Example 61] ; retrieve measured pIC50.
Result: 6.59

Ask: Param item = CN(CCO)CCN1CCCc2cc(NC(=N)c3cccs3)ccc21 [Example 62] ; retrieve measured pIC50.
Result: 6.89

Ask: Param item = CN(C)CCN1C(=O)CCCc2cccc(NC(=N)c3cccs3)c21 [Example 33] ; retrieve measured pIC50.
Result: 5.66

Ask: Param item = CN(C)CCN1C(=O)CCCc2cc(NC(=N)c3cccs3)ccc21 [Example 25] ; retrieve measured pIC50.
Result: 4.91

Ask: Param item = CCN(CC)CCCN1C(=O)CCc2cc(NC(=N)c3cccs3)ccc21 [Example 7] ; retrieve measured pIC50.
Result: 6.06

Ask: Param item = CN(C)CCN1CCCc2cc(NC(=N)c3cccs3)cc(F)c21 [Example 42] ; retrieve measured pIC50.
Result: 7.05

Ask: Param item = CN1CCCC1CCN1CCCCc2cc(NC(=N)c3cccs3)ccc21 (centres unmarked) [Example 45] ; retrieve measured pIC50.
Result: 5.74

Ask: Param item = CN(C)CCN1C(=O)CCc2cc(NC(=N)c3cccs3)cc(F)c21 [Example 41] ; retrieve measured pIC50.
Result: 5.48
